src = PubChem BioAssay (EPA / NIEHS)

# Experiment: Tanguay_ZF_120hpf_MORT_legacy: (Legacy) Oregon State University Tanguay Lab 120 Hour Post-fertilization zebrafish Assay for Mortality (AID 2283633)
Activity calls are given as the source filed them. How the source made its calls: active means hit-call score of the fitted dose curve at least 0.9, where 1 is the maximum; inconclusive means response in the unintended direction; inactive means score below 0.9.
Outcome codes: active, inactive

• CS/C(C)=N/OC(=O)N(C)SN(C)C(=O)O/N=C(\C)SC = inactive
• CCCCC(CC)COC(=O)c1ccccc1C(=O)OCC(CC)CCCC (configuration not stated) = inactive
• CON(C)C(=O)Nc1ccc(Cl)c(Cl)c1 = inactive
• Oc1ccccc1-c1ccccc1 = inactive
• COc1ccc(C(c2ccc(OC)cc2)C(Cl)(Cl)Cl)cc1 = inactive
• COC(=O)C(C)Oc1ccc(Oc2ccc(Cl)cc2Cl)cc1 (configuration not stated) = inactive
• CC1=C(C(=O)Nc2ccccc2)SCCO1 = active
• CC(C)Oc1cc(-n2nc(C(C)(C)C)oc2=O)c(Cl)cc1Cl = inactive
• C=CCC1=C(C)C(OC(=O)C2C(C=C(C)C)C2(C)C)CC1=O (configuration not stated) = inactive
• COC(=O)C=C(C)OP(=O)(OC)OC = inactive
• COC(=O)c1ccccc1C(=O)OC = inactive
• CNC(=O)ON=CC(C)(C)SC = inactive
• CCc1nn(C)c(C(=O)NCc2ccc(C(C)(C)C)cc2)c1Cl = inactive
• Cc1ccc(-c2c(Cl)nc(C#N)n2S(=O)(=O)N(C)C)cc1 = active
• CCOC(=O)CC(SP(=S)(OC)OC)C(=O)OCC (configuration not stated) = inactive
• CCOC(=O)C(Cl)Cc1cc(-n2nc(C)n(C(F)F)c2=O)c(F)cc1Cl (configuration not stated) = inactive
• CC(C)(C)c1ccc(CSc2cnn(C(C)(C)C)c(=O)c2Cl)cc1 = active

---

# Experiment: BSK_3C_uPAR: BioMAP Diversity Plus: 3C Assay for Urokinase-type plasminogen activator receptor (uPAR) Biomarker Activity (AID 2282998)
# Condition Parameters: BioMAP 3C HUVEC, uPAR biomarker ELISA; actives raise or lower the signal
Activity calls are given as the source filed them. Rule for the calls: active = hit-call score of the fitted dose curve at least 0.9, where 1 is the maximum; inactive = score below 0.9.
Assay Readout: outcome

- COP(N)(=O)SC (stereo not drawn): inactive
- CCNc1nc(Cl)nc(NC(C)C)n1: inactive
- CC1=C(C(=O)Nc2ccccc2)SCCO1: inactive

---

# Read-out: Interleukin-1 alpha (IL1a), IL1A (gene 3552)
# Experiment: BSK_KF3CT_IL1a: BioMAP Diversity Plus: KF3CT Assay for Interleukin-1 alpha (IL1a) Biomarker Activity (AID 2283070)
# Condition Parameters: primary human keratinocytes with fibroblasts; actives raise or lower the signal
Active and inactive are the calls of the source. Rule for the calls: active = hit-call score of the fitted dose curve at least 0.9, where 1 is the maximum; inactive = score below 0.9.
Assay Readout: AC50

• CNC(=O)ON=CC(C)(C)SC = 1.34 µM (active)
• CC(Oc1ccc(Cl)cc1Cl)C(=O)O (stereo not drawn) = inactive
• CCON=C(CC)C1=C(O)CC(c2c(C)cc(C)cc2C)CC1=O (stereo not drawn) = inactive
• CN(C)C(=S)SSC(=S)N(C)C = 6.44 µM (active)
• COC(=O)C=C(C)OP(=O)(OC)OC = inactive
• Cc1cc(Cl)ccc1OCC(=O)O = inactive
• CO/C=C(/C(=O)OC)c1ccccc1Oc1cc(Oc2ccccc2C#N)ncn1 = inactive
• C=CC1(C)OC(=O)N(c2cc(Cl)cc(Cl)c2)C1=O (stereo not drawn) = inactive
• Fc1ccc(Oc2ccnc3cc(Cl)cc(Cl)c23)cc1 = inactive
• C#CCOS(=O)OC1CCCCC1Oc1ccc(C(C)(C)C)cc1 (stereo not drawn) = 14.8 µM (active)
• CCOc1cc(Oc2ccc(C(F)(F)F)cc2Cl)ccc1[N+](=O)[O-] = 6.07 µM (active)
• CC1=C(C(=O)Nc2ccccc2)SCCO1 = inactive
• CCNc1nc(Cl)nc(NC(C)C)n1 = inactive
